Where do these numbers come from? They come from paper PMC12136788.

experimental-system: T1, UNK ZnF1-3 (human, UniProt Q9C0B0 31-174)
T1 sequence: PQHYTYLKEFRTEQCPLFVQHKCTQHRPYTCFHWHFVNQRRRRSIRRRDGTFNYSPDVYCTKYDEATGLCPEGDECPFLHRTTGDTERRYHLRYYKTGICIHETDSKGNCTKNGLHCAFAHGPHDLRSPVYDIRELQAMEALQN
test-details: nsRBNS (natural sequence RNA bind-n-seq); RBNS binding buffer (assumed for nsRBNS): 25 mM Tris pH 7.5, 150 mM KCl, 3 mM MgCl2, 0.01% Triton X-100, 500 ug/ml BSA, 20 U/ml SUPERase-In, 4 C; UNK is unkempt and MSI1 is Musashi-1; names of the RNAs are library labels; protein concentration not given here; high values mean tight binding
Over roughly 24,000 sequences, “enrichment r” has its median near 0.99; the highest 2% begin near 3.7. The full list was thinned out, with the highest values kept by preference.
Documented binding signal across a set of binders

binder: chr4:144461564:144461565:+_ENSG00000153147_ENST00000283131|hu_hu|motif|central (ssRNA) RNA: GGGAGUUCUACAGUCCGACGAUCCCUCCCUUGUUGAAUGACUAUUGAAUCCAGUCUGAGUUUCAUCUCAGCACGUUCGGCGGUUCUUUCUUCUACAGUGUUAUCAGUUAUAAAGCGGAACACUCUGACUGUCUUAGUCUGCCCCAACAGAGGAUUGAGCAUCA
binding signal, enrichment R: 0.923
--
binder: chr1:163112212:163112213:-_ENSG00000143248_ENST00000313961|hu_hu|FALSE|FALSE (ssRNA) RNA: GGGAGUUCUACAGUCCGACGAUCUUUAUUUAUCCAGAAGCAUGAGUCACAUAGUACAUAAAGUAUUGAAUACAAAAUUCUAAAGAUAAACACAAUUUUUCUUGAAUUUAAAAUAUAUGGGAUAAAUGCUUACAAAUGGAUUUACAACAGAGGAUUGAGCAUCA
binding signal, enrichment R: 7.3
--
binder: chr8:74858975:74858976:-_ENSG00000154582_ENST00000284811|hu_hu|FALSE|FALSE (ssRNA) RNA: GGGAGUUCUACAGUCCGACGAUCAACCUUGUACGUAAAAUACAUGCAUACUUUCGAUAGCACAUGUGAAGGUAUCUCUCUAAAAUUGACCUCAUUGGUUUCGUUCUCAGCAAACUGACCUGGGCCACUCAACAUGGCUUUUAUCAACAGAGGAUUGAGCAUCA
binding signal, enrichment R: 0.5
